Task for the reader: assign each of the following molecules its reported growth AUC normalised to DMSO control.
# System: S. enterica typhimurium tolC KO
# EXPERIMENTAL_DETAILS: growth AUC normalised to DMSO control (median) (fraction of control); higher = less growth inhibition, active = hit call of the paper;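 also: active when median AUC fell below 0.1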
# CONDITION_LABEL: 20 µM
Where a name gives a salt, the structure may show the parent alone.

Provide the reported growth AUC normalised to DMSO control of each entry below, same order.
1. COC(=O)C1=C(C)NC(C)=C(C(=O)OCCN2CCN(C(c3ccccc3)c3ccccc3)CC2)C1c1cccc([N+](=O)[O-])c1 (stereo not drawn) [Manidipine Dihydrochloride]
2. COc1ccc(/C=C/C(=O)Nc2ccccc2C(=O)O)cc1OC
3. O=C(O)c1cc(=O)c2ccccc2o1
4. CCOC(=O)C1=C[C@]2(CC)CCCN3CCc4c(n1c1ccccc41)[C@@H]32
5. O=c1[nH]cnc2c1ncn2[C@H]1CC[C@@H](CO)O1

**A:**
["1.02 (inactive)", "0.952 (inactive)", "1 (inactive)", "0.972 (inactive)", "0.949 (inactive)"]

Provide the reported growth AUC normalised to DMSO control of each entry below, same order.
1. CN(CCCCCCCCCCN(C)C(=O)Oc1cccc([N+](C)(C)C)c1)C(=O)Oc1cccc([N+](C)(C)C)c1 [Demecarium bromide]
2. Clc1ccc(C(Cn2ccnc2)OCc2c(Cl)cccc2Cl)c(Cl)c1 (stereo not drawn)

**A:**
1: 0.922 (inactive); 2: 0.953 (inactive)

Provide the reported growth AUC normalised to DMSO control of each entry below, same order.
1. CSc1nc2cc(Cl)c(Oc3cccc(Cl)c3Cl)cc2[nH]1
2. Cn1ccnc1S

**A:**
1: 0.0431 (active); 2: 0.988 (inactive)

Provide the reported growth AUC normalised to DMSO control of each entry below, same order.
1. COc1ccc(Cl)cc1C(=O)NCCc1ccc(S(=O)(=O)NC(=O)NC2CCCCC2)cc1 [Glibenclamide]
2. C[C@]12C=CC(=O)C=C1CC[C@@H]1[C@@H]2C(=O)C[C@@]2(C)[C@H]1CC[C@]2(O)C(=O)CO
3. CCN1CCN(C(=O)N[C@@H](C(=O)N[C@@H]2C(=O)N3C(C(=O)O)=C(CSc4nnnn4C)CS[C@H]23)c2ccc(O)cc2)C(=O)C1=O [Cefoperazone dihydrate]
4. Cc1ccsc1C(=CCCN1CCC[C@@H](C(=O)O)C1)c1sccc1C [Tiagabine hydrochloride]
5. Cc1cc(C#N)cc(C)c1Oc1nc(Nc2ccc(C#N)cc2)nc(N)c1Br
6. CCCC(=O)OCOC(=O)C1=C(C)NC(C)=C(C(=O)OC)C1c1cccc(Cl)c1Cl (stereo not drawn)

**A:**
1. 1 (inactive)
2. 0.999 (inactive)
3. 0.00245 (active)
4. 1 (inactive)
5. 1.01 (inactive)
6. 1 (inactive)

* * *

# System: P. vulgatus RND KO
# EXPERIMENTAL_DETAILS: growth AUC normalised to DMSO control (median) (fraction of control); higher = less growth inhibition, active = hit call of the paper
# CONDITION_LABEL: 20 µM
Structures can show the parent of a compound that is named as a salt.
Task for the reader: assign each of the following compounds its reported growth AUC normalised to DMSO control.
Numbers only.

# annotated cases, reported growth AUC normalised to DMSO control shown
COMPOUND: CCN1CCC[C@H]1CNC(=O)c1c(O)c(Cl)cc(Cl)c1OC [Raclopride]
REPORTED: 1.04
//
COMPOUND: CC(=O)S[C@@H]1CC2=CC(=O)CC[C@]2(C)[C@H]2CC[C@@]3(C)[C@@H](CC[C@@]34CCC(=O)O4)[C@H]12 [Spironolactone]
REPORTED: 1.02
//
COMPOUND: NC[C@@H]1O[C@@H](O[C@H]2[C@H](O)[C@@H](O[C@H]3O[C@H](CO)[C@@H](O)[C@H](N)[C@H]3O)[C@H](N)C[C@@H]2N)[C@@H](O)[C@H](O)[C@H]1O [Kanamycin A sulfate]
REPORTED: 1.01
//
COMPOUND: Cc1ccc(-c2ncc(Cl)cc2-c2ccc(S(C)(=O)=O)cc2)cn1 [Etoricoxib]
REPORTED: 1.01
//
COMPOUND: Cc1cccc(C)c1OCC(C)N (stereo not drawn) [Mexiletine hydrochloride]
REPORTED: 1.03

Provide the reported growth AUC normalised to DMSO control of each entry below, same order.
1. CN(C)CCCO[C@@H]1[C@H]2OC(C)(C)O[C@H]2O[C@@H]1[C@H](O)CO [Amiprilose hydrochloride]
2. CC(C(O)c1ccc(O)cc1)N1CCC(Cc2ccccc2)CC1 (stereo not drawn) [Ifenprodil tartrate]

**A:**
1: 0.969; 2: 1.03

Provide the reported growth AUC normalised to DMSO control of each entry below, same order.
1. Cc1ccc(NC(=O)c2ccc(CN3CCN(C)CC3)cc2)cc1Nc1nccc(-c2cccnc2)n1 [Imatinib]
2. O=C(CCCl)NCc1ccccc1 [Beclamide]
3. CC(=O)[C@H]1CC[C@H]2[C@@H]3CC=C4C[C@@H](O)CC[C@]4(C)[C@H]3CC[C@]12C [Pregnenolone]

**A:**
[1.12, 0.972, 1.02]

Provide the reported growth AUC normalised to DMSO control of each entry below, same order.
1. Cn1c(=O)c2[nH]cnc2n(C)c1=O [Aminophylline]
2. CCC(C)n1ncn(-c2ccc(N3CCN(c4ccc(OCC5COC(Cn6cncn6)(c6ccc(Cl)cc6Cl)O5)cc4)CC3)cc2)c1=O (stereo not drawn) [Itraconazole]
3. CC(C)(C)NCC(O)CSc1nc(-c2ccc(C(N)=O)s2)cs1 (stereo not drawn) [Arotinolol hydrochloride]

**A:**
[1.03, 1.1, 1.02]

Provide the reported growth AUC normalised to DMSO control of each entry below, same order.
1. Clc1ccc2c(c1)C(N1CCNCC1)=Nc1ccccc1O2 [Amoxapine]
2. CC(C)n1c(/C=C/C(O)CC(O)CC(=O)O)c(-c2ccc(F)cc2)c2ccccc21 (stereo not drawn) [Fluvastatin sodium salt]
3. CN(C(=O)CN(CCO)CC(=O)N(C)C(C)(C)Cc1ccccc1)C(C)(C)Cc1ccccc1 [Oxethazaine]

**A:**
1. 0.795
2. 1
3. 0.688
